- Target Of Assay: human AMPK α1β1γ1 enzyme (Homo sapiens, UniProt Q13131+Q9Y478)
- Construct: purchased Carna Biosciences, Inc
- Sequence (Q13131 10-559 limits assumed): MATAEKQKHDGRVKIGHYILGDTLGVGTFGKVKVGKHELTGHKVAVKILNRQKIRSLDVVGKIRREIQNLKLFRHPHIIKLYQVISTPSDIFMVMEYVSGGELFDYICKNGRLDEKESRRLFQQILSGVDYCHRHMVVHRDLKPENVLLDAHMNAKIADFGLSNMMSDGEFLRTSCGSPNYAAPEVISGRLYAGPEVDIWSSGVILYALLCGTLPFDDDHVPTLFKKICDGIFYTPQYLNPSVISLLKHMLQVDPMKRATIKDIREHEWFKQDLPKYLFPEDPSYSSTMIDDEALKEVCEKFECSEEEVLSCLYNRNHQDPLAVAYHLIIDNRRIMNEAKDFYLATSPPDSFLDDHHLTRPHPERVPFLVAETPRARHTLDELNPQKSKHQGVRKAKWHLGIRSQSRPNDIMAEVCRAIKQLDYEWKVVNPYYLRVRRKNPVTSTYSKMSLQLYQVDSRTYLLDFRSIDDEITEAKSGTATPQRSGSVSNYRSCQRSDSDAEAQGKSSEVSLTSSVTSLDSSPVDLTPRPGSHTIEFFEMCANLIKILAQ
- Sequence (Q9Y478 whole entry): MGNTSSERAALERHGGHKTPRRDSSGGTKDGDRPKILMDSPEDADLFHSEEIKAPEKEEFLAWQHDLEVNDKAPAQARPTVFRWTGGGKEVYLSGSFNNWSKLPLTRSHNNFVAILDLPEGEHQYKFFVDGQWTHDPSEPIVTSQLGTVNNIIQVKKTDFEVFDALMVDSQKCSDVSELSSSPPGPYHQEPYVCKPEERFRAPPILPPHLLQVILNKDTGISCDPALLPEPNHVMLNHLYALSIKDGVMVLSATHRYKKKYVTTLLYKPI
- Sequence (P54619 whole entry partner): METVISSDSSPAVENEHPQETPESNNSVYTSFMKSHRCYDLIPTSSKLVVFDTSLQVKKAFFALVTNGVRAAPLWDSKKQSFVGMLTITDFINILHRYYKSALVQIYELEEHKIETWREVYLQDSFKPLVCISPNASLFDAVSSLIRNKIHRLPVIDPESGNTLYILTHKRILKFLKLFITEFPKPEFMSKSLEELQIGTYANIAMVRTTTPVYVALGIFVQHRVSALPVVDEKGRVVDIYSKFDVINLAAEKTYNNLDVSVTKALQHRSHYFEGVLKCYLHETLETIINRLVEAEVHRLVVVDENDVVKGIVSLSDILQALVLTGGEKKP
- Experimental Details: AMPK activator evaluation, Test Example 1 (mobility shift, FL-Peptide 7)
- Format: biochemical
- Reported Conditions: human AMPK α1β1γ1, control without compound = 100%; read-out: Emax (maximum rate of increase in activity within the measurement range)
Readout: Emax

See these solved cases before continuing.
>>> reported("NC(=O)c1cccc2ccc(Oc3nc4nc(-c5ccc(N6CCOCC6)cc5)c(Cl)cc4[nH]3)cc12 [Compound B-113]")
"316%"
>>> reported("Cc1ccc(Oc2nc3cc(-c4ccc5c(ccn5C)c4)ccc3[nH]2)cc1C(=O)O [Compound B-5]")
"176%"
>>> reported("CC(=O)NC(C)(C)c1ccc(Oc2nc3nc(-c4ccc(N(C)C)cc4)c(Cl)cc3[nH]2)cc1 [Compound D-21]")
"351%"
>>> reported("Cc1ccc(Oc2nc3cc(Cl)c(-c4ccc(-c5ccccc5O)cc4)nc3[nH]2)cc1C(=O)O [Compound C-4]")
"355%"
>>> reported("O=C(O)CCc1ccc(Oc2nc3nc(-c4ccc(N5CCOCC5)cc4)c(Cl)cc3[nH]2)cc1 [Compound B-136]")
"333%"

Which measured Emax value corresponds to CC(C)(C(=O)O)c1ccc(Oc2nc3nc(-c4ccc(N5CCCC5)cc4)c(Cl)cc3[nH]2)cc1 [Compound C-11] ?
356%

Look up Emax: Cc1ccc(Oc2nc3nc(-c4ccc(N5CCOCC5)nc4)c(Cl)cc3[nH]2)cc1C(=O)O [Compound B-63]
321%
